List of binding signal values.
target: TDP-43 (Homo sapiens, UniProt Q13148 1-414); assay: RNA Bind-n-Seq with designed 260-mer pool; 25 mM Tris-HCl, 150 mM KCl, 3 mM MgCl2, BSA (printed 500 mg/mL), 20 units/mL SUPERase IN; pH not stated; 500 nM RNA pool, 1 h, 4 C; TDP-43 5, 50, 500 nM; high values mean tight binding; conditions: protein: recombinant; tags: SBP (GST cleaved off with PreScission; pGEX-GST-SBP)
Sequence (Q13148 whole entry): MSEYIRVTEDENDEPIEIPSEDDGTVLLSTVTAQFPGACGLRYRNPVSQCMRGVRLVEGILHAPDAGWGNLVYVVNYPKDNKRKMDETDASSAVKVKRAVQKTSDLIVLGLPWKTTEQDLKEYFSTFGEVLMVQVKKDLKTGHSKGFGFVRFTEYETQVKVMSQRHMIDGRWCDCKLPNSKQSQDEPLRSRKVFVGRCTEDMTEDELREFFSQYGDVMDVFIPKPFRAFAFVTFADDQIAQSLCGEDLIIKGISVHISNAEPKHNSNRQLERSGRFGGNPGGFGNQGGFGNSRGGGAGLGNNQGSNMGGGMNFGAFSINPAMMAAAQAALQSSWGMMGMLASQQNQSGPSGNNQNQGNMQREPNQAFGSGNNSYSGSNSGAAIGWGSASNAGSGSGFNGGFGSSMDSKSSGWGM
The full ranking holds about 9,900 sequences; the median of “r (bound/input frequency ratio)” is about 0.7, and the highest 2% start at about 6.5. The sample holds the highest values, similar sequences and a random draw of the others, so the mix is not that of the screen.

binder: ENSMUSG00000061578.1464|Ksr2 (ssRNA) RNA: GGGAGUUCUACAGUCCGACGAUCGCUUCGAUAUCCGCAUGCUAGGUAGAUAGGUAUAUGAAUGAAUGGAUGAAUGGAUGGGUGAAUGGAUGGAUAGGUAUGUGAAUAAAUGGAUGGAUGGAUGGAUUGAUUUGUGAAUGAAUGGAUGAAUGGAUGGGUAGGUGGGUGGAUGCAUAGGCAAGUAGAUGAAUGAAUAUGUGGGUAGAAGGGUGAGUGGGUGGAUGAAUGGAUGGAUAGGUUGGUAGGUUAAUGUAUUCGUGGAUGGGUGAAUGGAUGGAUGGAUAGAUAGAUGGGAAGGUGGAUGCUCUUGCGGUCGCACUAGUGUGGAAUUCUCGGGUGUCAAGG
binding signal: 5.55 R (bound/input frequency ratio)
//
binder: ENSMUSG00000032194.22|Kank2 (ssRNA) RNA: GGGAGUUCUACAGUCCGACGAUCGCUUCGAUAUCCGCAUGCUAUCCCUCUGUCCCAUUCUGCCUCGGCAUUCCUCAGCCCCUGAACUUCCCUGAGGGAGCCCUGACAUCUACCAGGCUCAAGCUCCUGGAAGCCUUUCCCAGCACCCUGGGUUCAAAGCCAGAAAGCCAAGCUACAUUCUCCUCCCAGUUGGCACCAGUUGACAACGCCUUGGGUGUGGGUUUCUUGUAAAGAACAUAGAGAACAAUCAGCCGGCAAUUAUGGGAGGAGGAAGGGGGGGCAAGAAGAGAAAAUACUGUAUUCUCUCUUGCGGUCGCACUAGUGUGGAAUUCUCGGGUGUCAAGG
binding signal: 0.911 R (bound/input frequency ratio)
//
binder: ENSMUSG00000043670.217|Diras1|25:29;58:70;94:99;102:106;111:115;225:229 (ssRNA) RNA: GGGAGUUCUACAGUCCGACGAUCGCUUCGAUAUCCGCAUGCUAGGAUGGGGUGUUCUUGCACCACUUACACAUCUUAGUGAGACCACAGUGUAAGUGGCCCACACACACACACGGGGGGGGCACCUAGACAUUGUGCACACACUCAUACGCUCACACAUUUCAGGGGUGGGUGACACAGGCCUGUCUGAUGAGCACCAGGUCUGUUCCAGGCUGUGGCAAGCUGGCUCCUGGCUCAGAAGUGACAAAGCUGCAGUACAGAGGCCUCACACACAGGUCAUCACCUCACAGUGGCUACAGACCAGCUCUUGCGGUCGCACUAGUGUGGAAUUCUCGGGUGUCAAGG
binding signal: 0.883 R (bound/input frequency ratio)
//
binder: ENSMUSG00000061578.1460|Ksr2|78:82 (ssRNA) RNA: GGGAGUUCUACAGUCCGACGAUCGCUUCGAUAUCCGCAUGCUAGAUGGAUGAAUGGAUGGGUAGGUGGGUAGAUAGGUAUAUGAAUGAAUGGAUGAAUGGAUGGGUGAAUGGAUGGAUAGCAUACUGAAUAAAUGGAUGGAUGGAUGGAUUGAUUUGUGAAUGAAUGGAUGAAUGGAUGGGUAGGUGGGUGGAUGCAUAGGCAAGUAGAUGAAUGAAUAUGUGGGUAGAAGGGUGAGUGGGUGGAUGAAUGGAUGGAUAGGUUGGUAGGUUAAUGUAUUCGUGGAUGGGUGAAUGGAUGGAUGCUCUUGCGGUCGCACUAGUGUGGAAUUCUCGGGUGUCAAGG
binding signal: 5.37 R (bound/input frequency ratio)
//
binder: ENSMUSG00000058297.32|Spock2 (ssRNA) RNA: GGGAGUUCUACAGUCCGACGAUCGCUUCGAUAUCCGCAUGCUACAAAUGGAUCCGGAAGUCAGUGCGGAGGACCCUGGCUCCAGUGGGGGAGGACUGGGGAGUGUGGCUUGUGUGUAUGUGUGAUAUGAGAUGUGUGUGUAUGAUGUGAGAUGUGAGUGUGUGAUGUGAGAUGUGUGUAUGUGAGAUGUGUGUGUGUGUGUGUGUGUGUGUGAUGUGAGUCACCCAAAGGUCCCUAUGUUAUUGAUUUUCAAAUGCACACUUUCACACACAAGGAUACACUAACAGACCAAAAUCAAUGAGAUCUCUUGCGGUCGCACUAGUGUGGAAUUCUCGGGUGUCAAGG
binding signal: 7.46 R (bound/input frequency ratio)
//
binder: ENSMUSG00000032194.344|Kank2 (ssRNA) RNA: GGGAGUUCUACAGUCCGACGAUCGCUUCGAUAUCCGCAUGCUAAACACCCACCAGUCUCUCCUCUCCUUCCCGCUAUACUCCAGUUUUCUUUCUACUCUGUGACCACGGUACAUCCAUGAAGACAGUGUUACACGUAAAUGAAGUAUUCUUUUCUUGUAAUCAUAUUUUAGAAAGUAAAAGGACUUAAUAAAGCUACAAAUAAAAACAUUGCCUCGUGUCUGUUUGUUCUCCUUCUUUUUAGGCUAGCCUUGAACUCCUGAUCCUCCUGCCUUCCAUCUCCCAAGUGCUGGGAUGACAGGCACCUCUUGCGGUCGCACUAGUGUGGAAUUCUCGGGUGUCAAGG
binding signal: 0.585 R (bound/input frequency ratio)
//
binder: ENSMUSG00000061578.1464|Ksr2|54:58 (ssRNA) RNA: GGGAGUUCUACAGUCCGACGAUCGCUUCGAUAUCCGCAUGCUAGGUAGAUAGGUAUAUGAAUGAAUGGAUGAAUGGAUGGGUGAAUGGAUGGAUAGCAUACUGAAUAAAUGGAUGGAUGGAUGGAUUGAUUUGUGAAUGAAUGGAUGAAUGGAUGGGUAGGUGGGUGGAUGCAUAGGCAAGUAGAUGAAUGAAUAUGUGGGUAGAAGGGUGAGUGGGUGGAUGAAUGGAUGGAUAGGUUGGUAGGUUAAUGUAUUCGUGGAUGGGUGAAUGGAUGGAUGGAUAGAUAGAUGGGAAGGUGGAUGCUCUUGCGGUCGCACUAGUGUGGAAUUCUCGGGUGUCAAGG
binding signal: 7.9 R (bound/input frequency ratio)
